Test system: Osteoblasts (Calvarial cells)
PROTOCOL_SUMMARY: Cytotoxicity test (MTT)
MEASUREMENT_CONDITIONS: 1 μM compound, 72 hours, in comparison with vehicle control
PROPERTY_MEASURED: Cell viability (%) Calvarial cell
# unit: % | format: bare number

CC(C)CNc1ccc([N+](=O)[O-])c(Nc2ccc(N3CCC(O)CC3)c(F)c2)n1 [Compound 238] | 106

Task item: Name the recorded Cell viability (%) Calvarial cell of the item CCN(CC)c1ccc(Nc2nc(NC)ccc2[N+](=O)[O-])cc1F [Compound 175] in your answer.
Reply: 104

Task item: Name the recorded Cell viability (%) Calvarial cell of the item O=[N+]([O-])c1ccc(NCc2cccnc2)nc1Nc1ccc(N2CCOCC2)c(F)c1 [Compound 197] in your answer.
Reply: 95

Task item: Name the recorded Cell viability (%) Calvarial cell of the item Cc1ccc(Nc2nc(N(C)CC3OCCO3)ccc2[N+](=O)[O-])cc1 [Compound 4] in your answer.
Reply: 104

Task item: Name the recorded Cell viability (%) Calvarial cell of the item O=[N+]([O-])c1ccc(NCc2cccnc2)nc1Nc1ccc(N2CCNCC2)c(F)c1 [Compound 220] in your answer.
Reply: 93

Task item: Name the recorded Cell viability (%) Calvarial cell of the item CC1CCCCN1c1ccc(Nc2nc(N3CCC(O)CC3)ccc2[N+](=O)[O-])cc1F (centres unmarked) [Compound 265] in your answer.
Reply: 104

Task item: Name the recorded Cell viability (%) Calvarial cell of the item CC(C)(C)Nc1ccc([N+](=O)[O-])c(Nc2ccc(N3CCC(O)CC3)c(F)c2)n1 [Compound 243] in your answer.
Reply: 97

Task item: Name the recorded Cell viability (%) Calvarial cell of the item COc1ccc(Nc2nc(N(C)CC3OCCO3)ccc2[N+](=O)[O-])cc1 [Compound 18] in your answer.
Reply: 91

###

List of Cell viability (%) Calvarial cell values.
System: Osteoblasts (Calvarial cells)
MEASUREMENT_CONDITIONS: ICR, mouse, 72 h, 1 μM
# unit: % | format: bare number

Consider the reported Cell viability (%) Calvarial cell for these compounds:
CNc1ccc([N+](=O)[O-])c(Nc2ccc(C(C)(C)C)cc2)n1 [Compound 30] | 90
NC1CCN(c2ccc([N+](=O)[O-])c(Nc3ccc(-c4csc(C5CCCCC5)n4)cc3)n2)CC1 [Compound 161] | 98
Cc1ccc(Nc2nc(NCC(C)C)ccc2[N+](=O)[O-])cc1 [Compound 3] | 102
Cc1ccc(Nc2nc(-n3ccnc3C(C)C)ccc2[N+](=O)[O-])cc1 [Compound 7] | 103
Cc1nc(-c2ccc(Nc3nc(N4CCNCC4)ccc3[N+](=O)[O-])cc2)cs1 [Compound 143] | 85

Task item: Name the recorded Cell viability (%) Calvarial cell of the item COc1ccc(Nc2nc(N3CCC(O)CC3)ccc2[N+](=O)[O-])cc1 [Compound 19] in your answer.
Reply: 94

Task item: Name the recorded Cell viability (%) Calvarial cell of the item Cc1ccc(Nc2nc(N3CCNCC3)ccc2[N+](=O)[O-])cc1 [Compound 12] in your answer.
Reply: 103

Task item: Name the recorded Cell viability (%) Calvarial cell of the item CC(=O)c1cccc(Nc2nc(N3CCN(C)CC3)ccc2[N+](=O)[O-])c1 [Compound 105] in your answer.
Reply: 90

Task item: Name the recorded Cell viability (%) Calvarial cell of the item Nc1cccc(Nc2nc(N3CCNCC3)ccc2[N+](=O)[O-])c1 [Compound 76] in your answer.
Reply: 102
